# System: Hep-2 cells
# assay: Toxicity studies (XTT), Hep-2 cells
# Format: cell-based
# settings: Table 2, Examples 75 to 82 and 125 to 184, 2d
reported.metric: TC50 (2d)

{"compound": "O=C(NC1N=C(c2ccccc2)c2ccccc2NC1=O)C(=O)c1cccs1 (stereo not drawn)", "TC50 (2d)": "> 50 µM"}
{"compound": "CC(C)(C)NC(=O)NC1N=C(c2ccccc2)c2ccccc2NC1=O (stereo not drawn)", "TC50 (2d)": "> 100 µM"}
{"compound": "O=C(CC(O)c1ccccc1)NC1N=C(c2ccccc2)c2ccccc2NC1=O (stereo not drawn)", "TC50 (2d)": "> 50 µM"}
{"compound": "O=C(NC1N=C(c2ccccc2)c2ccc(Cl)cc2NC1=O)C1CCCCC1 (stereo not drawn)", "TC50 (2d)": "> 100 µM"}
{"compound": "CN(C(=O)Nc1ccccc1F)C1N=C(c2ccccc2)c2ccccc2NC1=O (stereo not drawn)", "TC50 (2d)": "> 50 µM"}

So what does the record say about TC50 (2d) for Cc1ccc2c(c1)NC(=O)C(NC(=O)c1cccs1)N=C2c1ccccc1 (stereo not drawn) ?
50 µM

Value source: patent US8119630B2
